systemUnderTest: human, citrated, platelet-rich plasma (Homo sapiens, UniProt P05106+P08514)
Construct: aggregating human, citrated, platelet-rich plasma; endogenous in cells; host or cells: human platelets in citrated platelet-rich plasma
Sequence (P08514 32-887 limits assumed): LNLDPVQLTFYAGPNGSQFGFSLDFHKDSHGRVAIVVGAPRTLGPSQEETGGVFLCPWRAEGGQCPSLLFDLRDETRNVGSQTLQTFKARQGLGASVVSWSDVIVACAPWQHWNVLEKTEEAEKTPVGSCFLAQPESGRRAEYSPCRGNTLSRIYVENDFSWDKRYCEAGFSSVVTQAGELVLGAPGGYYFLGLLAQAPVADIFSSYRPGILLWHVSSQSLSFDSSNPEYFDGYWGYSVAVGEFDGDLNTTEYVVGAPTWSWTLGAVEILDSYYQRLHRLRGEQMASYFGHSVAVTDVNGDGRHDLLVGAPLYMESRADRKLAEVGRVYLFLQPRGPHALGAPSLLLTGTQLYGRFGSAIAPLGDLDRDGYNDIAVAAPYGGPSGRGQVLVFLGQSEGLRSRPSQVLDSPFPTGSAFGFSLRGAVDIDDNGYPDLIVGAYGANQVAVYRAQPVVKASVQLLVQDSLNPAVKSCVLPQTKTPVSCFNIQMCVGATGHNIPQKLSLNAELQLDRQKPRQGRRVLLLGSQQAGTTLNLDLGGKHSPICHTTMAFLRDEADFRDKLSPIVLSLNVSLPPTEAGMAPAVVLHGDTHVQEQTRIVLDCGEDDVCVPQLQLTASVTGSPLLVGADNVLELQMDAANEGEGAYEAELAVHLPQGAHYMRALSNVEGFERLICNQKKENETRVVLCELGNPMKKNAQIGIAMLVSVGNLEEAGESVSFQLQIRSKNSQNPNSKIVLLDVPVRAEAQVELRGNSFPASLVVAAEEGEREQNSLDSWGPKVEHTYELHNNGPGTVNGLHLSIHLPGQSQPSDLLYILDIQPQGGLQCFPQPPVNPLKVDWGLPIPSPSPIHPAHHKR
Sequence (P08514 891-1039 limits assumed): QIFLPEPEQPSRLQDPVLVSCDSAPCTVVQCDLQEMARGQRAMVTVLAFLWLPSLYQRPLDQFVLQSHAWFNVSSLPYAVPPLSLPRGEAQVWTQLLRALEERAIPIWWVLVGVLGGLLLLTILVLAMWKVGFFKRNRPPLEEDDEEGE
Sequence (P05106 27-788): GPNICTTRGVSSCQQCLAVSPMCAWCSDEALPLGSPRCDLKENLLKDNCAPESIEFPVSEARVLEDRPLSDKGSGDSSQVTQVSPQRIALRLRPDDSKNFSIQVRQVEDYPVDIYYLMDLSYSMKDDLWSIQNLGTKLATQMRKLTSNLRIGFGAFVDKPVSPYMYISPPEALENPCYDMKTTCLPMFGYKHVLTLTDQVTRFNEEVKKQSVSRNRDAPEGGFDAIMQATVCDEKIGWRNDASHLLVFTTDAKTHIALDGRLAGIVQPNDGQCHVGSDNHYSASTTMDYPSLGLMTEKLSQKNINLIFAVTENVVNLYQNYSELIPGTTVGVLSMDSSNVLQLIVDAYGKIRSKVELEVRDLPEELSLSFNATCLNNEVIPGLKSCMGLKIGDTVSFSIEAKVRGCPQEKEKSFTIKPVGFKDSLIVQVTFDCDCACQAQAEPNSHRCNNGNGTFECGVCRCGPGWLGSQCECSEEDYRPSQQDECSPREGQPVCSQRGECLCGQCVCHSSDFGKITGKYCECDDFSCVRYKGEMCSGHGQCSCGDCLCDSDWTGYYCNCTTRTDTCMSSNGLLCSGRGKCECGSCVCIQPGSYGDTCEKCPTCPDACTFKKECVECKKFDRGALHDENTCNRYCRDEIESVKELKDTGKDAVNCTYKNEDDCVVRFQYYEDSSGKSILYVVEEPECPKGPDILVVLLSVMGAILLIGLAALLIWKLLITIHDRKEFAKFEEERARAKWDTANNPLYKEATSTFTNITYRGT
test: Test (a): inhibition of ADP stimulated platelet aggregation (Born)
Type: cell-based
settings: ADP induced aggregation of human platelet-rich plasma; read-out: Test (a): pA2 value indicating potency of platelet aggregation inhibition (converted)
parameterMeasured: Kb

Lab note: compound O=C(O)CC(COc1ccc(N2CCN(c3ccncc3)CC2)cc1)c1ccccc1 (racemic) [Example 221] tested on human, citrated, platelet-rich plasma (Homo sapiens, UniProt P05106+P08514); recorded Kb was 158 nM

Continuing:
Entry COC(=O)CC(C)NC(=O)c1ccc(N2CCN(c3ccncc3)CC2)cc1 (stereo not drawn) [Example 60] ; assay system human, citrated, platelet-rich plasma (Homo sapiens, UniProt P05106+P08514); Kb recorded at 10000 nM

Reported human, citrated, platelet-rich plasma (Homo sapiens, UniProt P05106+P08514) Kb for item O=C(O)COC1CCN(C(=O)CN2CCN(c3ccncc3)CC2)CC1 [Example 32] was 200 nM

Case CNC(=O)COc1ccc(C(=O)CN2CCN(c3ccncc3)CC2)cc1 [Example 143] , human, citrated, platelet-rich plasma (Homo sapiens, UniProt P05106+P08514), Kb recorded as 10000 nM

Result for O=C(O)COc1ccc(C(=O)CN2CCN(c3ccncc3)CC2)cc1 [Example 2] , tested on human, citrated, platelet-rich plasma (Homo sapiens, UniProt P05106+P08514), Kb: 50.1 to 79.4 nM

Readout Kb for O=C(O)CCCOc1cccc(N2CCN(c3ccncc3)CC2)c1 [Example 227] , test system human, citrated, platelet-rich plasma (Homo sapiens, UniProt P05106+P08514), was 2510 nM
